Cited source: patent US12612372B2

The entries below come with measured CYP2D6 activity (%) with respect to control group not treated with any compound values attached.
- SYSTEM UNDER TEST: CYP2D6 (Homo sapiens)
- Construct: human liver microsomes (0.25 mg/mL); from tissue; host or cells: human liver microsomes
- Sequence (P10635 whole entry): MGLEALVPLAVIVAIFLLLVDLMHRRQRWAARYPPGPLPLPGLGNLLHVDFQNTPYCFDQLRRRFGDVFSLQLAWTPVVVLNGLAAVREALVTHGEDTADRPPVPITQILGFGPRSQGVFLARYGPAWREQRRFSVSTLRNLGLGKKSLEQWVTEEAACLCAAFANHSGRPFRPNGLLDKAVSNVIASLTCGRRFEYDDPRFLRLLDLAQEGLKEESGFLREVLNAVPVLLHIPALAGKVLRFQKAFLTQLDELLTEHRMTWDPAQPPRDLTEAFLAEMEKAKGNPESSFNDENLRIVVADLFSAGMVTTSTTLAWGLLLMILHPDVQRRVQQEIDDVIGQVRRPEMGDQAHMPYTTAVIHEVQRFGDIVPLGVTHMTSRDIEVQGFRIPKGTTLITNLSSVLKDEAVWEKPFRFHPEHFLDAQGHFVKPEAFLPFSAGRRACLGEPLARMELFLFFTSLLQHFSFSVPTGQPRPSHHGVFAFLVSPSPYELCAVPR
- EXPERIMENT NOTES: CYP coenzyme activity in human liver microsomes, CYP2D6
- Format: in vitro ADME
- PARTICULARS: 10 μM compound, human liver microsomes 0.25 mg/mL, substrate dextromethorphan, 15 minutes
REPORTED PROPERTY: CYP2D6 activity (%) with respect to control group not treated with any compound

COMPOUND	RECORDED MEASUREMENT
CC(C)N1N=C(c2ccc(NN=C(C#N)C#N)cc2)CCC1=O	74.6%
CC1CC(=O)N(C(C)C)N=C1c1ccc(NN=C(C#N)C#N)cc1 (stereo not drawn)	84.9%
CC1CC(=O)N(C2CC2)N=C1c1ccc(NN=C(C#N)C#N)cc1 (stereo not drawn)	72.6%
CCN1N=C(c2ccc(NN=C(C#N)C#N)cc2)C(C)CC1=O (stereo not drawn)	93.6%
CC1CC(=O)N(CC(F)(F)F)N=C1c1ccc(NN=C(C#N)C#N)cc1 (stereo not drawn)	62.1%
COCCN1N=C(c2ccc(NN=C(C#N)C#N)cc2)C(C)CC1=O (stereo not drawn)	70.4%

----------
The entries below come with measured CYP1A2 activity (%) with respect to control group not treated with any compound values attached.
- SYSTEM UNDER TEST: CYP1A2 (Homo sapiens)
- Construct: human liver microsomes (0.25 mg/mL); from tissue; host or cells: human liver microsomes
- Sequence (P05177 whole entry): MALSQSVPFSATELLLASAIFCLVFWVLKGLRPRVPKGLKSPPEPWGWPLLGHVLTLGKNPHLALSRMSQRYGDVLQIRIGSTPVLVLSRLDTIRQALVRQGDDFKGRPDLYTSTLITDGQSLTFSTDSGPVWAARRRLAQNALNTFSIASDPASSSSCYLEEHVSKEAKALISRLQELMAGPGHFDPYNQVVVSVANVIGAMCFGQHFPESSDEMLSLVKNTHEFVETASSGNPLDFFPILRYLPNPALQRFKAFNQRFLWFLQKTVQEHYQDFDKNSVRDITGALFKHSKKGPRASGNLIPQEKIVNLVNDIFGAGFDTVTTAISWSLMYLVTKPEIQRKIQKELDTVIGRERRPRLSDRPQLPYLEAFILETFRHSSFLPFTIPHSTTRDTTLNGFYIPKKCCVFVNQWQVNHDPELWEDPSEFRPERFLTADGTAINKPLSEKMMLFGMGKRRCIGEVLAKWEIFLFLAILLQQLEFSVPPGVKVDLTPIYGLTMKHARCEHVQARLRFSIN
- EXPERIMENT NOTES: CYP coenzyme activity in human liver microsomes, CYP1A2
- Format: in vitro ADME
- PARTICULARS: 10 μM compound, human liver microsomes 0.25 mg/mL, substrate phenacetin, 15 minutes
REPORTED PROPERTY: CYP1A2 activity (%) with respect to control group not treated with any compound

COMPOUND	RECORDED MEASUREMENT
CC(C)N1N=C(c2ccc(NN=C(C#N)C#N)cc2)CCC1=O [Example 1]	79%
CC1CC(=O)N(C(C)C)N=C1c1ccc(NN=C(C#N)C#N)cc1 (stereo not drawn) [Example 2]	80.5%
CC1CC(=O)N(CC(F)(F)F)N=C1c1ccc(NN=C(C#N)C#N)cc1 (stereo not drawn) [Example 4]	74.8%
COCCN1N=C(c2ccc(NN=C(C#N)C#N)cc2)C(C)CC1=O (stereo not drawn) [Example 5]	70%
CCN1N=C(c2ccc(NN=C(C#N)C#N)cc2)C(C)CC1=O (stereo not drawn) [Example 3]	>100%
CC1CC(=O)N(C2CC2)N=C1c1ccc(NN=C(C#N)C#N)cc1 (stereo not drawn) [Example 6]	78.6%

----------
- Test system: Tau-BiFC cells
- EXPERIMENT NOTES: Cell viability (stained nuclei count) in tau-BiFC cells
- PARTICULARS: 10 μM compound; stained nuclei relative to Forskolin-only group (100%), 48 hours

COMPOUND	Cell viability (%, @10 μM) [%]
Cc1cnn(-c2ccc(NN=C(C#N)C#N)cc2)c(=O)c1 [Comparative Example 7, reference compound]	102.3
COc1ccc(N2N=C(c3ccc(NN=C(C#N)C#N)cc3)C(C)CC2=O)cc1 (stereo not shown)	89.3
CC(C)N1N=C(c2ccc(NN=C(C#N)C#N)cc2)CCC1=O	110.1
CC1CC(=O)N(C(C)C)N=C1c1ccc(NN=C(C#N)C#N)cc1 (stereo not shown)	102.8

----------
- EXPERIMENT NOTES: Liver microsome stability, dog
- Type: in vitro ADME
- PARTICULARS: dog liver microsomes 0.25 mg/mL, 1 μM compound, 37° C., 30 minutes, NADPH
The entries below come with measured Dog (%) amount remaining after the reaction values attached.
REPORTED PROPERTY: Dog (%) amount remaining after the reaction

MOLECULE	RECORDED MEASUREMENT
COCCN1N=C(c2ccc(NN=C(C#N)C#N)cc2)C(C)CC1=O (stereo not drawn)	>100%
CC1CC(=O)N(C(C)C)N=C1c1ccc(NN=C(C#N)C#N)cc1 (stereo not drawn)	>100%
CC(C)N1N=C(c2ccc(NN=C(C#N)C#N)cc2)CCC1=O	>100%
